EXPERIMENTAL PROTOCOL: Area under concentration-curve (from 0-infinity) for a compound in plasma of rats after oral administration
Type: ADME
Set-up: time infinity, route oral
ASSAY SETUP: rat
ATTRIBUTE MEASURED: AUC 0-inf (µM·h)

Consider the following illustrative entries.
| SMILES RECORD | ATTRIBUTE MEASURED | OBSERVED MEASUREMENT |
| --- | --- | --- |
| CC(C)S(=O)(=O)n1c(N)nc2ccc(-c3[nH]c(C(C)(C)C)nc3-c3ccc(F)cc3F)cc21.CS(=O)(=O)O | AUC 0-inf | 14.6 |
| CC(C)S(=O)(=O)n1c(N)nc2ccc(-c3[nH]cnc3-c3ccc(F)cc3)cc21.CS(=O)(=O)O.CS(=O)(=O)O | AUC 0-inf | 1.4 |
| CC(C)S(=O)(=O)n1c(N)nc2ccc(-c3[nH]c(-c4c(Cl)cccc4Cl)nc3-c3ccccc3)cc21.CS(=O)(=O)O | AUC 0-inf | 17 |
| CS(=O)(=O)O.CS(=O)(=O)O.Nc1nc2ccc(-c3[nH]c(-c4c(F)cccc4F)nc3-c3ccccc3)cc2n1S(=O)(=O)C1CCCC1 | AUC 0-inf | 0.9 |
| CC(C)(C)c1nc(-c2ccc(F)cc2F)c(-c2ccc3nc(N)n(S(=O)(=O)C(C)(C)C)c3c2)[nH]1.CS(=O)(=O)O | AUC 0-inf | 28.3 |

I: CN(C)S(=O)(=O)n1c(N)nc2ccc(-c3[nH]c(-c4c(F)cccc4F)nc3-c3ccccc3)cc21.CS(=O)(=O)O.CS(=O)(=O)O
II: CC(C)S(=O)(=O)n1c(N)nc2ccc(-c3[nH]cnc3-c3ccccc3)cc21
Which record would sort first by descending AUC 0-inf, I or II ? Indicate which entry you chose by stating its label.
I

* * *

Listed below: TMED50 values for each entry.
Tested on: Mus musculus
EXPERIMENTAL PROTOCOL: In vivo threshold minimum effective dose for inhibition of LPS-induced TNF-alpha production in mice after oral administration
Assay type: functional
Give the quantity in mg/kg, number only.

Observe how each entry below is paired with its result.
| SMILES RECORD | TMED50 / mg/kg |
| --- | --- |
| CS(=O)(=O)O.CS(=O)(=O)O.Nc1nc2ccc(-c3[nH]c(-c4c(F)cccc4F)nc3-c3ccccc3)cc2n1S(=O)(=O)C1CCCC1 | 5.1 |
| CC(C)S(=O)(=O)n1c(N)nc2ccc(-c3[nH]c(-c4c(Cl)cccc4Cl)nc3-c3ccccc3)cc21.CS(=O)(=O)O | 2.5 |
| CC(C)S(=O)(=O)n1c(N)nc2ccc(-c3[nH]cnc3-c3ccc(F)cc3)cc21.CS(=O)(=O)O.CS(=O)(=O)O | 9.6 |
| CC(C)c1nc(-c2ccc(F)cc2)c(-c2ccc3nc(N)n(S(=O)(=O)C(C)C)c3c2)[nH]1.CS(=O)(=O)O | 4.9 |
| CC(C)S(=O)(=O)n1c(N)nc2ccc(-c3[nH]c(C(C)(C)C)nc3-c3ccc(F)cc3)cc21.CS(=O)(=O)O.CS(=O)(=O)O | 3.9 |
| CC(C)S(=O)(=O)n1c(N)nc2ccc(-c3[nH]c(C(C)(C)C)nc3-c3ccc(F)cc3F)cc21.CS(=O)(=O)O | 2.2 |
| CC(C)S(=O)(=O)n1c(N)nc2ccc(-c3[nH]cnc3-c3ccccc3)cc21 | 19.8 |

Answer with the recorded TMED50 of CC(C)S(=O)(=O)n1c(N)nc2ccc(-c3nc(-c4c(F)cccc4F)[nH]c3-c3ccccc3)cc21 only.
5.2
